Values from PubChem BioAssay AID328

- System: BDF1 mice, P388 leukemia ip, median survival T/C
- procedure_text: NCI In Vivo Anticancer Drug Screen. Data for tumor model P388 Leukemia (intraperitoneal) in B6D2F1 (BDF1) mice
- condition_context: endpoint: median survival time; dose: 25.0 mg/kg/injection; schedule: Q01DX009 (ip); vehicle: other; higher = longer survival
- Method: The antitumor activity of compounds was measured in mice bearing transplantable tumors. Survival or tumor size were measured and the results are expressed as the measurement made in the treated group (T) divided by the measurement made in the vehicle treated control group (C). The tumor model used in this assay is P388 Leukemia (intraperitoneal) in B6D2F1 (BDF1) mice
Toxic doses and inconclusive results are not listed. Non-standard residues stand in square brackets, D forms with d. Residues, ends and D or L forms follow the SMILES beside them. ξ: configuration not given here. *: point of attachment. Nphe = O=C(O)CNCc1ccccc1; ξF = NC(Cc1ccccc1)C(=O)O; Ms = CS(=O)(=O)*

>  <molecule>
NC(CSCc1ccccc1)(CSCc1ccccc1)C(=O)O

>  <T/C>
122 % of control

$$$$
>  <molecule>
COc1ccc(CC#N)c(OCc2ccccc2)c1

>  <T/C>
102 % of control

$$$$
>  <molecule>
CS(=O)(=O)N(CC(=O)NC(Cc1ccccc1)C(=O)O)Cc1ccccc1 (stereo not given) (Ms-[Nphe]-[ξF]-OH)

>  <T/C>
114 % of control

$$$$
>  <molecule>
CCCCCCCCCCCCCCCCS(=O)(=O)NN

>  <T/C>
96 % of control

$$$$
>  <molecule>
CC1=C(C(=O)OCc2ccccc2)C(c2ccc(Cl)cc2)C(C(=O)OCc2ccccc2)=C(C)N1

>  <T/C>
94 % of control

$$$$

----------
- Test system: BDF1 mice, P388 leukemia ip, median survival T/C
- procedure_text: NCI In Vivo Anticancer Drug Screen. Data for tumor model P388 Leukemia (intraperitoneal) in B6D2F1 (BDF1) mice
- condition_context: endpoint: median survival time; dose: 200.0 mg/kg/injection; schedule: Q04DX003 (ip); vehicle: saline with Tween-80; higher = longer survival
Inconclusive results and toxic doses are left out.
value_kind: T/C

>  <molecule>
O=C1OC(c2ccccc2)=C/C1=C/c1ccccc1O

>  <recorded_result>
116 % of control

$$$$
>  <molecule>
Brc1cnc(OCc2ccccc2)nc1OCc1ccccc1

>  <recorded_result>
104 % of control

$$$$
>  <molecule>
CC1=CC2=C(C=O)C(=O)[C@](C)(O)[C@@H](O)C2=CO1

>  <recorded_result>
95 % of control

$$$$
>  <molecule>
Cc1ccc(NS(=O)(=O)c2ccc(Br)cc2)c(C)c1

>  <recorded_result>
100 % of control

$$$$
>  <molecule>
Cc1ccc(CNc2cc(C)ccn2)cc1

>  <recorded_result>
110 % of control

$$$$
>  <molecule>
O=[N+]([O-])c1ccc(/C=N/c2ncc(Br)s2)o1

>  <recorded_result>
90 % of control

$$$$
>  <molecule>
C[C@]12C[C@@H](F)C(=O)C[C@@H]1CC[C@@H]1[C@@H]2CC[C@]2(C)[C@@H](O)CC[C@@H]12

>  <recorded_result>
100 % of control

$$$$
>  <molecule>
CCCN(Cc1ccc(CN(CCC)C(=O)C(Cl)Cl)cc1)C(=O)C(Cl)Cl

>  <recorded_result>
95 % of control

$$$$
>  <molecule>
COC(=O)C(CSCSC)NC(=O)/C=C/c1ccc(C)cc1 (configuration not stated)

>  <recorded_result>
91 % of control

$$$$
>  <molecule>
CCC(=O)c1cc([N+](=O)[O-])ccc1N

>  <recorded_result>
109 % of control

$$$$
>  <molecule>
CCOC(=O)CC(=O)N/N=C(/C)C(=O)OCC

>  <recorded_result>
97 % of control

$$$$
>  <molecule>
CCOC(=O)C1C(=O)NC(=O)CC1C (configuration not stated)

>  <recorded_result>
99 % of control

$$$$

----------
- Tested on: BDF1 mice, P388 leukemia ip, median survival T/C
- procedure_text: NCI In Vivo Anticancer Drug Screen. Data for tumor model P388 Leukemia (intraperitoneal) in B6D2F1 (BDF1) mice
- condition_context: endpoint: median survival time; dose: 200.0 mg/kg/injection; schedule: Q01DX001 (ip); vehicle: saline with Tween-80; higher = longer survival
Toxic doses and inconclusive results are not listed.
# T/C per record follows
value_kind: T/C

>  <molecule>
CCn1c2ccc([N+](=O)[O-])cc2c2c([N+](=O)[O-])cccc21

>  <recorded_result>
100 % of control

$$$$
>  <molecule>
CN=C(c1ccccc1)C1(O)CC2CCC1C2 (stereo not drawn)

>  <recorded_result>
104 % of control

$$$$
>  <molecule>
O=C1c2ccccc2CC1(Cl)Cl

>  <recorded_result>
96 % of control

$$$$
>  <molecule>
CC(O)c1nc(N)nc(N)c1-c1ccc(Cl)cc1 (stereo not drawn)

>  <recorded_result>
100 % of control

$$$$
>  <molecule>
CCOC(=O)/C=C(\C)SC1=CC(=O)C=CC1=O

>  <recorded_result>
100 % of control

$$$$
>  <molecule>
O=S(=O)(Nc1ccc(NS(=O)(=O)c2ccccc2)c(S(=O)(=O)c2ccccc2)c1)c1ccccc1

>  <recorded_result>
100 % of control

$$$$
>  <molecule>
CC(C)NC(=O)c1ccccc1S(=O)(=O)c1ccccc1C(=O)NC(C)C

>  <recorded_result>
100 % of control

$$$$
>  <molecule>
CCCCCCCCCCCC(=O)Nc1ccc(C(=O)OCC)cc1

>  <recorded_result>
87 % of control

$$$$

----------
- Tested on: BDF1 mice, P388 leukemia ip, median survival T/C
- procedure_text: NCI In Vivo Anticancer Drug Screen. Data for tumor model P388 Leukemia (intraperitoneal) in B6D2F1 (BDF1) mice
- condition_context: endpoint: median survival time; dose: 400.0 mg/kg/injection; schedule: Q04DX003 (ip); vehicle: Klucel (hydroxypropylcellulose) (HPC); higher = longer survival
Toxic doses and inconclusive results are not listed.
value_kind: T/C

>  <compound>
CCCCC(=O)c1ccc(F)cc1

>  <recorded_result>
91 % of control

$$$$
>  <compound>
CCOC(=O)c1[nH]c2c(c1CC(CC)[N+](=O)[O-])CCCC2 (centres undefined)

>  <recorded_result>
91 % of control

$$$$
>  <compound>
ClC(Cl)(Cl)c1ccc(C(Cl)(Cl)Cl)cc1

>  <recorded_result>
104 % of control

$$$$
>  <compound>
CC(=O)Nc1ccc2c([N+](=O)[O-])cccc2c1-c1c(NC(C)=O)ccc2c([N+](=O)[O-])cccc12

>  <recorded_result>
100 % of control

$$$$
>  <compound>
Cc1ccc(S(=O)(=O)N=S2CCCC2)cc1

>  <recorded_result>
100 % of control

$$$$
>  <compound>
CCOC(=O)C(C#N)C1CCCCC1 (centres undefined)

>  <recorded_result>
90 % of control

$$$$
>  <compound>
CCCCC/C=C/c1c(C)[nH]c2ccccc2c1=O

>  <recorded_result>
113 % of control

$$$$
>  <compound>
OC12CCCC3CCCC(CCC1)C32 (centres undefined)

>  <recorded_result>
100 % of control

$$$$
>  <compound>
O=C(Cl)C1CC2c3ccccc3C1([N+](=O)[O-])c1ccccc12 (centres undefined)

>  <recorded_result>
113 % of control

$$$$
>  <compound>
N#C/C(=C1C=C(Br)/C(=N\O)C=C\1Cl)c1ccc(Cl)cc1

>  <recorded_result>
113 % of control

$$$$
>  <compound>
CCC(=O)OC1CC2C3CCC4=CC(=O)CCC4(C)C3CCC2(C)C1OC(=O)CC (centres undefined)

>  <recorded_result>
104 % of control

$$$$
>  <compound>
O=C(OC(c1ccccc1)c1ccccc1)C(CSC(c1ccccc1)(c1ccccc1)c1ccccc1)NC(c1ccccc1)(c1ccccc1)c1ccccc1 (centres undefined)

>  <recorded_result>
104 % of control

$$$$
>  <compound>
COc1cc2c(cc1OC)C(=O)C(C(=O)c1ccccc1)C2 (centres undefined)

>  <recorded_result>
112 % of control

$$$$
>  <compound>
CC(=O)NNc1ccc([N+](=O)[O-])cc1

>  <recorded_result>
90 % of control

$$$$
>  <compound>
Cc1ccc(S(=O)(=O)N(CC(=O)O)c2cccc(Cl)c2)cc1

>  <recorded_result>
100 % of control

$$$$
>  <compound>
ClC(Cl)(Cl)C1OCOC(C(Cl)(Cl)Cl)OCO1 (centres undefined)

>  <recorded_result>
90 % of control

$$$$
>  <compound>
COc1c(C(C)(C)C)cc([N+](=O)[O-])c(C)c1[N+](=O)[O-]

>  <recorded_result>
95 % of control

$$$$
>  <compound>
OC12C3CCCC1CCCC2CCC3 (centres undefined)

>  <recorded_result>
100 % of control

$$$$
>  <compound>
Cc1cc(NS(=O)(=O)c2ccccc2)ccc1NS(=O)(=O)c1ccccc1

>  <recorded_result>
95 % of control

$$$$
